# System: HeLa Kyoto;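 also: synchronized HeLa Kyoto cells, proteins quantified by TMT10plex mass spectrometry, three biological replicates, mitosis taken 0.5 h after nocodazole release, G1/S directly after double thymidine block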
# assay.protocol: thermal stability score vs G1/S (z-score of summed log2 fold changes over temperatures); higher = more thermally stable than in G1/S
# experimental.context: cell cycle stage: early G1 (4.5 h after nocodazole release)
thermal stability score vs -0.1: at or above is rule met, below is rule not met.

chain.sequence	class
MDTGVIEGGLNVTLTIRLLMHGKEVGSIIGKKGESVKKMREESGARINISEGNCPERIITLAGPTNAIFKAFAMIIDKLEEDISSSMTNSTAASRPPVTLRLVVPASQCGSLIGKGGCKIKEIRESTGAQVQVAGDMLPNSTERAITIAGIPQSIIECVKQICVVMLETLSQSPPKGVTIPYRPKPSSSPVIFAGGQDRYSTGSDSASFPHTTPSMCLNPDLEGPPLEAYTIQGQYAIPQPDLTKLHQLAMQQSHFPMTHGNTGFSGIESSSPEVKGYWGLDASAQTTSHELTIPNDLIGCIIGRQGAKINEIRQMSGAQIKIANPVEGSTDRQVTITGSAASISLAQYLINVRLSSETGGMGSS [PCBP2]	rule met
MPKCPKCNKEVYFAERVTSLGKDWHRPCLKCEKCGKTLTSGGHAEHEGKPYCNHPCYAAMFGPKGFGRGGAESHTFK [CRIP1]	rule not met
MSEKSVEAAAELSAKDLKEKKEKVEEKASRKERKKEVVEEEENGAEEEEEETAEDGEEEDEGEEEDEEEEEEDDEGPALKRAAEEEDEADPKRQKTENGASA [PTMS]	rule not met
MAAPAQQTTQPGGGKRKGKAQYVLAKRARRCDAGGPRQLEPGLQGILITCNMNERKCVEEAYSLLNEYGDDMYGPEKFTDKDQQPSGSEGEDDDAEAALKKEVGDIKASTEMRLRRFQSVESGANNVVFIRTLGIEPEKLVHHILQDMYKTKKKKTRVILRMLPISGTCKAFLEDMKKYAETFLEPWFKAPNKGTFQIVYKSRNNSHVNREEVIRELAGIVCTLNSENKVDLTNPQYTVVVEIIKAVCCLSVVKDYMLFRKYNLQEVVKSPKDPSQLNSKQGNGKEAKLESADKSDQNNTAEGKNNQQVPENTEELGQTKPTSNPQVVNEGGAKPELASQATEGSKSNENDFS [THUMPD1]	rule met
MGGKLSKKKKGYNVNDEKAKEKDKKAEGAATEEEGTPKESEPQAAAEPAEAKEGKEKPDQDAEGKAEEKEGEKDAAAAKEEAPKAEPEKTEGAAEAKAEPPKAPEQEQAAPGPAAGGEAPKAAEAAAAPAESAAPAAGEEPSKEEGEPKKTEAPAAPAAQETKSDGAPASDSKPGSSEAAPSSKETPAATEAPSSTPKAQGPAASAEEPKPVEAPAANSDQTVTVKE [BASP1]	rule not met
MSQGDSNPAAIPHAAEDIQGDDRWMSQHNRFVLDCKDKEPDVLFVGDSMVQLMQQYEIWRELFSPLHALNFGIGGDTTRHVLWRLKNGELENIKPKVIVVWVGTNNHENTAEEVAGGIEAIVQLINTRQPQAKIIVLGLLPRGEKPNPLRQKNAKVNQLLKVSLPKLANVQLLDTDGGFVHSDGAISCHDMFDFLHLTGGGYAKICKPLHELIMQLLEETPEEKQTTIA [PAFAH1B2]	rule not met
